- TARGET OF ASSAY: Mitogen-activated protein kinase 8 (Homo sapiens)
- Sequence (P45983 whole entry): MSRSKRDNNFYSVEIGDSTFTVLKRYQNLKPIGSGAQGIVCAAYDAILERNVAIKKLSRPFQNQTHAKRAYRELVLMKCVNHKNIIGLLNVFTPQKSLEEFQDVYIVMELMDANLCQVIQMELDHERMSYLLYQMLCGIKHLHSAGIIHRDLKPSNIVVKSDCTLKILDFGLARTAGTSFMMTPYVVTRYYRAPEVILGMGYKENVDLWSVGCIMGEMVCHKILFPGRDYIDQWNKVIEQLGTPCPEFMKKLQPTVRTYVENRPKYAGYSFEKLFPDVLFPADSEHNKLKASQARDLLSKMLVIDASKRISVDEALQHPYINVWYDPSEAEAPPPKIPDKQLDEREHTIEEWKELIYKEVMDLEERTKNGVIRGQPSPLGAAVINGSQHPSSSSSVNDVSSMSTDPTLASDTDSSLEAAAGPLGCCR
- MEASUREMENT DESCRIPTION: Inhibition of c-Jun N-terminal kinase 1-alpha 1
MEASURED METRIC: pIC50
Remember the convention: pIC50 equals -log10 of concentration in molar.

Indicate its recorded pIC50; the compound in question is C[S+]([O-])c1ccc(-c2cc(-c3ccncc3)c(-c3ccc(F)cc3)[nH]2)cc1 (stereo unspecified)
4.80

These entries and their values trace back to ChEMBL document CHEMBL1130598.
